# Tested on: U87MG cells
# procedureSummary: Cell proliferation assay in U87MG cells (direct cell counting)
# Format: cell-based, human
# measurementConditions: Homo sapiens, U-87 MG, 96 h, 3000 cells/well, incubated 4 days, viable cells directly counted, read-out: IC50 (half inhibitory concentration) against U87MG
measurementKind: IC50 (µM)
// return numeric value only (unit: µM, not printed)

Tested on U87MG cells, the item C[n+]1ccc(/C=C/c2c[nH]c3ccccc23)cc1.[I-] [F16, reference compound] showed IC50 equal to 36.5

Cited source: patent US20150336993A1
